Data credit: patent US8288379B2

- Target desc: FRAP1 (mTOR) kinase (Homo sapiens)
- Sequence (P42345 1360-2549 limits assumed): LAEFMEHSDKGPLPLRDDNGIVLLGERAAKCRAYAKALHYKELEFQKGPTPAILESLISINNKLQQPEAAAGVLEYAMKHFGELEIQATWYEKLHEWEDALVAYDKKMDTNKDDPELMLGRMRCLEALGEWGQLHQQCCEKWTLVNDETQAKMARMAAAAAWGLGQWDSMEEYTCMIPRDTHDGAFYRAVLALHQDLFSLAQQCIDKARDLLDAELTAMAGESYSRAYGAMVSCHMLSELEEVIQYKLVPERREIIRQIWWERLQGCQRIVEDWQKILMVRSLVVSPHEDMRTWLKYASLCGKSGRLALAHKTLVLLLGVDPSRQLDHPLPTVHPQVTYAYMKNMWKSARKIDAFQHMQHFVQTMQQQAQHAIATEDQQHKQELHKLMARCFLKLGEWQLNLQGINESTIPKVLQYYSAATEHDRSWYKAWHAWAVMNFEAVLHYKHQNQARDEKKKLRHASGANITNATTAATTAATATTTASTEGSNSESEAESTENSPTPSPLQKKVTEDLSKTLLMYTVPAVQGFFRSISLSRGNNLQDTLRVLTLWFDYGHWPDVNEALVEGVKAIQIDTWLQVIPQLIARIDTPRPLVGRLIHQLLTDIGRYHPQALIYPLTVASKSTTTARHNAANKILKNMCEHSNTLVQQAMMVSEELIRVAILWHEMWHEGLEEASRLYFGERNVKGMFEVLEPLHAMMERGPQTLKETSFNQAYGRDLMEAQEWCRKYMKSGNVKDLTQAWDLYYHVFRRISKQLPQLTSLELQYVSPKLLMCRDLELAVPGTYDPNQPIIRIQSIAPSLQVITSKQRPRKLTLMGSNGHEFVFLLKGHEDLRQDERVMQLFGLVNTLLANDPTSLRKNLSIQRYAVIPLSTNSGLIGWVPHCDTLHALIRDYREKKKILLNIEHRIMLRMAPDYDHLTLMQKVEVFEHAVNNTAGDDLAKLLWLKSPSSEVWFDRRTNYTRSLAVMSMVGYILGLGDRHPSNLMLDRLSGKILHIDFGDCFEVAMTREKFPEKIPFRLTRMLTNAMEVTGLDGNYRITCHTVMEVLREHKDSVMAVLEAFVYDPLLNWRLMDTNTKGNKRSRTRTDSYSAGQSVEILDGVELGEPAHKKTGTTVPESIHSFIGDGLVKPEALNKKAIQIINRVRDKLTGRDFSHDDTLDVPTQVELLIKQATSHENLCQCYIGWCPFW
- Protocol details: Inhibition of mTOR-induced p-4E-BP1 phosphorylation (TR-FRET mTOR Activity Kit; Invitrogen)
- Condition label: 400 nM GFP-4E-BP1 substrate, ~150 ng/mL mTOR, one hour at room temperature
Observation type: pIC50
pIC50 field: float, defined as -log10 of concentration (mol/L).

CC(=O)Nc1nc2c(s1)-c1c(c(-c3c[nH]cn3)nn1CC(C)C)CCC2 = 8.05
CNc1ccc(-c2nn(-c3ccccc3Cl)c3c2CCCc2nc(NC(=O)N(C)C)sc2-3)cn1 = 6.11
CCn1nc(-c2ccc(N)nc2)c2c1-c1sc(NC(=O)N(C)C)nc1CCC2 = 6.66
CNc1ccc(-c2nn(CCN3CCOCC3)c3c2CCCc2nc(NC(C)=O)sc2-3)cn1 = 7.48
CCNc1ccc(-c2nn(-c3cccnc3)c3c2CCCc2nc(NC(C)=O)sc2-3)cn1 = 7.08

Request: What measured pIC50 goes with "CNc1ccc(-c2nn(-c3ccccc3C)c3c2CCCc2nc(NC(=O)CCc4ncc[nH]4)sc2-3)cn1" ?
Result: 7.31

Request: What measured pIC50 goes with "CN(C)C(=O)Nc1nc2c(s1)-c1c(c(-c3ccc(N)nc3)nn1-c1ccccc1Cl)CCC2" ?
Result: 6.24

Request: What measured pIC50 goes with "COCCNC(=O)Nc1nc2c(s1)-c1c(c(-c3ccc(C)nc3)nn1-c1ccccc1C)CCC2" ?
Result: 5.80

Request: What measured pIC50 goes with "CC(=O)Nc1nc2c(s1)-c1c(c(-c3c[nH]cn3)nn1-c1ccccc1Cl)CCC2" ?
Result: 7.54

Request: What measured pIC50 goes with "C=CCn1nc(-c2ccc(NC)nc2)c2c1-c1sc(NC(=O)N(C)C)nc1CCC2" ?
Result: 6.13

Request: What measured pIC50 goes with "CCNc1ccc(-c2nn(-c3ccccc3C)c3c2CCCc2nc(NC(C)=O)sc2-3)cn1" ?
Result: 7.26
